Hey, just so you know, these numbers are from patent US20260053904A1.

# TARGET SYSTEM: T1, human EpCAM expressed on cells (CHO, Colo205, 293) (human, UniProt P16422 24-314)
# T1 construct: whole, on cells; also called CHO cells expressing human EpCAM; Colo205 cells expressing human EpCAM
# T1 sequence (looked up): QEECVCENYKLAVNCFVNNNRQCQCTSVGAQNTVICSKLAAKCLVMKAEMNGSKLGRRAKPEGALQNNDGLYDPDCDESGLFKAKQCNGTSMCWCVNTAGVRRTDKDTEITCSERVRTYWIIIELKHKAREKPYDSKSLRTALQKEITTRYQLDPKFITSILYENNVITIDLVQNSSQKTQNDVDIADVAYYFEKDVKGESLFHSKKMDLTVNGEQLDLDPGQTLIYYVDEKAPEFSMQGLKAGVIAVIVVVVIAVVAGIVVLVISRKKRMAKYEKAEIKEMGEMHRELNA
# TEST: FACS of MMAE conjugates on 293 cells expressing human EpCAM, pH 6.0
EC50 listing for selected binders.
# number only, unit µg/mL dropped from output

BA-105.4-02-01 8318-vcMMAE (antibody, V domains shown, antibody conjugated to vcMMAE; chain and residues of attachment not stated) VH: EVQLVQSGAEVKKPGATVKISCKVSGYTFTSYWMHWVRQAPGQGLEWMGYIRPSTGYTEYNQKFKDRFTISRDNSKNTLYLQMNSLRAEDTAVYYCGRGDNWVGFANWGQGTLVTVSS VL: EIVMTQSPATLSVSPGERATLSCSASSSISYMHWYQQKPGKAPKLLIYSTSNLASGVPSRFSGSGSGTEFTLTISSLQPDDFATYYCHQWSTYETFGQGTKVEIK ... 0.206
BA-105-01-01 7376-vcMMAE (antibody, V domains shown, antibody conjugated to vcMMAE; chain and residues of attachment not stated) VH: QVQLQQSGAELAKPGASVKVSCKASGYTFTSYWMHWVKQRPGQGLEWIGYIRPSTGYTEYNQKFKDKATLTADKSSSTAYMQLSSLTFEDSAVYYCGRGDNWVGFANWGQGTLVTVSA VL: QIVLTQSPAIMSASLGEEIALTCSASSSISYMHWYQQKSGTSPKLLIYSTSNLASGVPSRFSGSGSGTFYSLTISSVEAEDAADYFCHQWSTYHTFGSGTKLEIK ... 0.129
BA-105.4-01-02 8316-vcMMAE (antibody, V domains shown, antibody conjugated to vcMMAE; chain and residues of attachment not stated) VH: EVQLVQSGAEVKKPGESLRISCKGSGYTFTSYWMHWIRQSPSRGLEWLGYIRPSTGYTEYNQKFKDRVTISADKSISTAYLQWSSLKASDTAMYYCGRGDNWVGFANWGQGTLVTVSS VL: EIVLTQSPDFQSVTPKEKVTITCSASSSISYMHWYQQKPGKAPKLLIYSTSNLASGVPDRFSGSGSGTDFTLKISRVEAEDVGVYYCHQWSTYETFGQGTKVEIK ... 0.0637

Please look at this binder and report its EC50: BA-105.4-01-05 8317-vcMMAE (antibody, V domains shown, antibody conjugated to vcMMAE; chain and residues of attachment not stated) VH: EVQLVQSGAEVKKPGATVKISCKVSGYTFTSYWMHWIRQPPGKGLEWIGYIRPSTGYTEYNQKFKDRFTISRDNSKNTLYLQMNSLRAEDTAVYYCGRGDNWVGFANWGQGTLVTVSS VL: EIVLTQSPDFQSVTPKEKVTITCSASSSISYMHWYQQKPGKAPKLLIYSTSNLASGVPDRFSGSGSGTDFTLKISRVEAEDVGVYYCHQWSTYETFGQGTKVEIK
0.0772
